- Test system: SF-295 CNS
- method.summary: NCI tumour cell line growth inhibition, 48 h
readout.label: log10(TGI) (log10 of the value in µM)
Field: value | Transform: log10 | Quantity: TGI | Unit: µM

INSERT INTO measurements (molecule, target_system, quantitative_readout) VALUES
  ('FC(F)(F)c1ccc2c(c1)N(CCCN1CCN(C3CC3)CC1)c1ccccc1S2', 'SF-295 CNS', 1.26),
  ('CNC(=O)c1cc(Oc2ccc3nc(NC(=O)Nc4ccc(Cl)c(Cl)c4)sc3c2)ccn1', 'SF-295 CNS', 0.50),
  ('COC(=O)c1c2c(c(C)[n+]([O-])c1C)C(=O)C=C(NCc1ccc(Cl)cc1)C2=O', 'SF-295 CNS', 0.20),
  ('CCc1cc(Cc2cc(CC)c(NC(=O)C3=CC(=O)CC(c4ccc(OC)cc4)O3)c(CC)c2Cl)c(Cl)c(CC)c1NC(=O)C1=CC(=O)CC(c2ccc(OC)cc2)O1 (stereo not given)', 'SF-295 CNS', 1.59);

I have 4 molecules here; please give me log10(TGI) for each one.
1. COc1ncnc2c(NC3OC(CO)C(O)C3O)ncnc12 (stereo not given)
2. c1ccc(-c2nc(Nc3ccc(-c4nc5ccccc5[nH]4)cc3)nc(N3CCOCC3)n2)cc1
3. Fc1ccc(C(OCCN2CCC3CCC(C2)N3CCCc2ccccc2)c2ccc(F)cc2)cc1 (stereo not given)
4. O=C1/C(=C/c2cccc([N+](=O)[O-])c2)CCCc2ccccc21

Out:
[1.35, 0.45, 0.93, 1.44]
